# Tgt: Sodium-dependent serotonin transporter (Rattus norvegicus)
# Sequence (P31652 whole entry): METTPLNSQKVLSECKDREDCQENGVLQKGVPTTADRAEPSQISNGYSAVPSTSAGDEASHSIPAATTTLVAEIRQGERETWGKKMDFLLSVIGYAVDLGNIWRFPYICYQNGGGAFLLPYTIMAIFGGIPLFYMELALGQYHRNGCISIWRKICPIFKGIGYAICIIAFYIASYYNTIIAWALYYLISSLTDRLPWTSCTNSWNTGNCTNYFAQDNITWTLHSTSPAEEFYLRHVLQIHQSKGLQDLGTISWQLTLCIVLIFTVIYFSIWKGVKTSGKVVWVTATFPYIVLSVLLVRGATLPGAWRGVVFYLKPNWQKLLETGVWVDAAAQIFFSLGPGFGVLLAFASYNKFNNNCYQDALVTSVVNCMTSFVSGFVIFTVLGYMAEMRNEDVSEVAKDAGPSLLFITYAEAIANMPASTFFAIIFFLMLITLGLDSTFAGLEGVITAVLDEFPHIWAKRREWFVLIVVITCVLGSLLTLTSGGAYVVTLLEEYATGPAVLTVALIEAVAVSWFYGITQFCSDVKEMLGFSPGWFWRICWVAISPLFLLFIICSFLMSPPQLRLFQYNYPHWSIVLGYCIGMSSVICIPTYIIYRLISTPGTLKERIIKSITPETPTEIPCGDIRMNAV
# Test: Inhibition of SERT-mediated 5-HT uptake in Wistar rat brain synaptosomes
Result Type: IC50 (µM)
Numbers only here, please. The scale is µM.

Qu. Reported IC50 for CC(N)Cc1cc(Cl)c(Cl)s1.Cl (racemic) : what is it?
Ans. 0.45

Qu. Reported IC50 for CC(N)Cc1ccc(Cl)cc1.Cl (racemic) : what is it?
Ans. 0.5

###

Can you tell me LD50 for the items I'm about to list?
# Test: Toxicity in ip dosed ICR Swiss mouse
# Format: organism-based
# Study Conditions: in vivo
Numbers only here, please. The scale is mg/kg.

Qu. Reported LD50 for CC(N)Cc1ccc(Cl)s1.Cl (racemic) : what is it?
Ans. 113

Qu. Reported LD50 for CC(N)Cc1ccc(Cl)cc1.Cl (racemic) : what is it?
Ans. 64

Qu. Reported LD50 for CC(N)Cc1sccc1Cl.Cl (racemic) : what is it?
Ans. 101

Qu. Reported LD50 for CC(N)Cc1cc(Cl)c(Cl)s1.Cl (racemic) : what is it?
Ans. 133

Qu. Reported LD50 for CC(N)Cc1sc(Cl)cc1Cl.Cl (racemic) : what is it?
Ans. 135

Qu. Reported LD50 for CC(N)Cc1cccs1.Cl (racemic) : what is it?
Ans. 162

Qu. Reported LD50 for CC(N)Cc1scc(Cl)c1Cl.Cl (racemic) : what is it?
Ans. 121

Qu. Reported LD50 for CC(N)Cc1cc(Cl)cs1.Cl (racemic) : what is it?
Ans. 128
